// data source = patent US20210393549A1

Test system: DSS induced acute colitis
Conditions: grade 0, 2, 4; i.g. daily 8 days; 1 mg/kg (R-B, S-B 10 mg/kg; RS-C 2 mg/kg); mean ± SD
Assay metric: FOB (fecal occult blood)
Please give the numeric answer without any surrounding text.

Example results:
CC(C)(C)NC[C@H](O)c1ccc(O)c(CO)c1 [R-S, R-salbutamol]    0.5
CN(C)C(=O)Oc1cc(OC(=O)N(C)C)cc([C@H](O)CNC(C)(C)C)c1 [S-B, S-bambuterol]    2.5
CC(C)(C)NCC(O)c1cc(Cl)c(N)c(Cl)c1 (centres unmarked) [RS-C, RS-clenbuterol]    4
CC(C)(C)NC[C@H](O)c1cc(Cl)c(N)c(Cl)c1 [R-C, R-clenbuterol]    2

# ---- query molecule ----
Query block: // FOB (fecal occult blood) lookup, key: CC(C)(C)NC[C@@H](O)c1cc(O)cc(O)c1 [S-T, S-terbutaline]
Result block: 4

* * *

List of Weight values.
Test system: DSS induced acute colitis
Conditions: i.g. daily 8 days; 1 mg/kg (R-B, S-B 10 mg/kg; RS-C 2 mg/kg); mean ± SD

Example results:
CC(C)(C)NC[C@H](O)c1ccc(O)c(CO)c1 [R-S, R-salbutamol]    93 ± 2.8
CC(C)(C)NC[C@H](O)c1cc(O)cc(O)c1 [R-T, R-terbutaline]    88 ± 1.7
CC(C)(C)NCC(O)c1cc(Cl)c(N)c(Cl)c1 (centres unmarked) [RS-C, RS-clenbuterol]    87 ± 2
CC(C)(C)NC[C@H](O)c1cc(Cl)c(N)c(Cl)c1 [R-C, R-clenbuterol]    89 ± 2.0

# ---- query compound ----
Query block: // Weight lookup, key: CN(C)C(=O)Oc1cc(OC(=O)N(C)C)cc([C@H](O)CNC(C)(C)C)c1 [S-B, S-bambuterol]
Result block: 81 ± 3.2

* * *

List of FOB (fecal occult blood) values.
Tested on: DSS induced acute colitis
Conditions: grade 0, 2, 4; i.g. daily 8 days; 1 mg/kg (R-B, S-B 10 mg/kg; RS-C 2 mg/kg); mean ± SD

CN(C)C(=O)Oc1cc(OC(=O)N(C)C)cc([C@@H](O)CNC(C)(C)C)c1    1 ± 0.5
CC(C)(C)NC[C@@H](O)c1ccc(O)c(CO)c1    4.5 ± 0.5
C[C@@H]1C[C@H]2[C@@H]3CCC4=CC(=O)C=C[C@]4(C)[C@@]3(F)[C@@H](O)C[C@]2(C)[C@@]1(O)C(=O)CO    2.5 ± 0.5

# ---- query compound ----
Query block: // FOB (fecal occult blood) lookup, key: CC(C)(C)NC[C@H](O)c1cc(O)cc(O)c1
Result block: 2 ± 0

* * *

Tested on: DSS induced sub-acute colitis
Format: in vivo
Set-up: scale not given here
Conditions: one week treatment, evaluation at 23rd day; R-S, S-S 1 mg/kg; R-B, S-B 10 mg/kg
Assay metric: DAI (disease active index)
Please give the numeric answer without any surrounding text.

Example results:
CN(C)C(=O)Oc1cc(OC(=O)N(C)C)cc([C@@H](O)CNC(C)(C)C)c1    6
CC(C)(C)NC[C@H](O)c1ccc(O)c(CO)c1    4
CN(C)C(=O)Oc1cc(OC(=O)N(C)C)cc([C@H](O)CNC(C)(C)C)c1    12

# ---- query compound ----
Query block: // DAI (disease active index) lookup, key: CC(C)(C)NC[C@@H](O)c1ccc(O)c(CO)c1
Result block: 13

* * *

Tested on: DSS induced sub-acute colitis
Format: in vivo
Design: scale not given here
Details: one week treatment, evaluation at 23rd day; R-S, S-S 1 mg/kg; R-B, S-B 10 mg/kg
List of FOB (fecal occult blood) values.

CC(C)(C)NC[C@H](O)c1ccc(O)c(CO)c1 [R-S, R-salbutamol]    0.5 ± 0.5

Query block: // FOB (fecal occult blood) lookup, key: CC(C)(C)NC[C@@H](O)c1ccc(O)c(CO)c1 [S-S, S-salbutamol]
Result block: 4.5 ± 0.3

Query block: // FOB (fecal occult blood) lookup, key: CN(C)C(=O)Oc1cc(OC(=O)N(C)C)cc([C@@H](O)CNC(C)(C)C)c1 [R-B, R-bambuterol]
Result block: 1.1 ± 0.5

Query block: // FOB (fecal occult blood) lookup, key: CN(C)C(=O)Oc1cc(OC(=O)N(C)C)cc([C@H](O)CNC(C)(C)C)c1 [S-B, S-bambuterol]
Result block: 3.9 ± 0.1

* * *

Tested on: DSS induced acute colitis
Details: i.g. daily 8 days; 1 mg/kg (R-B, S-B 10 mg/kg; RS-C 2 mg/kg); mean ± SD
List of Weight values.
Please give the numeric answer without any surrounding text.

Example results:
CN(C)C(=O)Oc1cc(OC(=O)N(C)C)cc([C@@H](O)CNC(C)(C)C)c1 [R-B, R-bambuterol]    92
CC(C)(C)NC[C@@H](O)c1ccc(O)c(CO)c1 [S-S, S-salbutamol]    80

Query block: // Weight lookup, key: CC(C)(C)NC[C@@H](O)c1cc(O)cc(O)c1 [S-T, S-terbutaline]
Result block: 80

Query block: // Weight lookup, key: C[C@@H]1C[C@H]2[C@@H]3CCC4=CC(=O)C=C[C@]4(C)[C@@]3(F)[C@@H](O)C[C@]2(C)[C@@]1(O)C(=O)CO [DEX, Dexamethasone]
Result block: 88
